Overview of reported IC50 across a group of molecules:
TEST TARGET: IRAK4 kinase (Homo sapiens (Human), UniProt Q9NWZ3)
Sequence (Q9NWZ3 whole entry): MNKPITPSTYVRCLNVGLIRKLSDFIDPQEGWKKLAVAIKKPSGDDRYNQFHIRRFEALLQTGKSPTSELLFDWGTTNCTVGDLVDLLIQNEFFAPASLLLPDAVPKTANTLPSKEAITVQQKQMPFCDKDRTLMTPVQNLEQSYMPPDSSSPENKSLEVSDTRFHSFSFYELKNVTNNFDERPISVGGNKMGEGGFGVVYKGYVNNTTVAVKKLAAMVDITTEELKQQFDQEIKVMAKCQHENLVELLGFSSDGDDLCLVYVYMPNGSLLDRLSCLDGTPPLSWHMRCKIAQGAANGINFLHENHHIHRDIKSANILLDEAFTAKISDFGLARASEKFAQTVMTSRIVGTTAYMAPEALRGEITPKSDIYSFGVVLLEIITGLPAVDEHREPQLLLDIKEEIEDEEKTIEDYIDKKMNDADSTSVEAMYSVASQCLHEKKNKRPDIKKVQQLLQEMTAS
ASSAY PROCEDURE: IRAK4 Kinase Inhibition Assay (Cisbio HTRF KinEASE-STK S1 kit)
Format: biochemical
REPORTED CONDITIONS: IRAK4 kinase protein 10 nM, ATP 200 μM, STK Substrate 1-biotin 1 μM, 37° C. 2 h, read-out: IC50 (nM), IRAK4 kinase inhibitory activity

Some entries whose results are on file:
| MOLECULE | TEST TARGET | IC50 |
| --- | --- | --- |
| FC(F)c1nn(C2CCCCC2)cc1-n1cc(-c2cnn3ccc(N4C[C@H]5C[C@@H]4CO5)nc23)nn1 | IRAK4 kinase (Homo sapiens (Human), UniProt Q9NWZ3) | 100 to 1000 nM |
| OC[C@H]1CC[C@H](n2cc(-n3cc(-c4cnn5ccc(N6CCC(O)C6)nc45)nn3)c(C(F)F)n2)CC1 (stereo partly drawn) [Compound 101A] | IRAK4 kinase (Homo sapiens (Human), UniProt Q9NWZ3) | 100 to 1000 nM |
| N[C@@H]1CCCN(c2ccn3ncc(-c4cn(-c5cn(C6CCC(CO)CC6)nc5C(F)F)nn4)c3n2)C1 (stereo partly drawn) [Compound 106A] | IRAK4 kinase (Homo sapiens (Human), UniProt Q9NWZ3) | < 100 nM |
| N[C@H]1CCCN(c2ccn3ncc(-c4cn(-c5cn(C6CCC(CO)CC6)nc5C(F)F)nn4)c3n2)C1 (stereo partly drawn) [Compound 103A] | IRAK4 kinase (Homo sapiens (Human), UniProt Q9NWZ3) | < 100 nM |
| OC[C@H]1CC[C@H](n2cc(-n3cc(-c4cnn5ccc(N6CC(O)C6)nc45)nn3)c(C(F)F)n2)CC1 [Compound 96A] | IRAK4 kinase (Homo sapiens (Human), UniProt Q9NWZ3) | 100 to 1000 nM |
| NC(=O)c1cnn2c(-c3cn(-c4cn(C5CCCCC5)nc4C(F)F)nn3)ccc2c1 [Compound 60A] | IRAK4 kinase (Homo sapiens (Human), UniProt Q9NWZ3) | < 100 nM |
| CC1(O)CCN(c2ccn3ncc(-c4cn(-c5cn([C@H]6CC[C@H](CO)CC6)nc5C(F)F)nn4)c3n2)CC1 [Compound 93A] | IRAK4 kinase (Homo sapiens (Human), UniProt Q9NWZ3) | < 100 nM |
| CN(C)C1CCN(c2ccn3ncc(-c4cn(-c5cn(C6CCC(CO)CC6)nc5C(F)F)nn4)c3n2)CC1 (stereo not drawn) [Compound 102A] | IRAK4 kinase (Homo sapiens (Human), UniProt Q9NWZ3) | 100 to 1000 nM |

Input line: Can you share its IC50? I mean this molecule: O=C(O)c1cnc2c(ccn2-c2cn(-c3cn(C4CCCCC4)nc3C(F)F)nn2)c1 [Compound 66A]
Output line: 1000 to 5000 nM

Input line: Consider the molecule `FC(F)c1nn(C2CCCCC2)cc1-n1cc(-c2cnn3ccc(N4CCOCC4)nc23)nn1` and give its measured IC50.
Output line: < 100 nM

Input line: Query (molecule): NC(=O)c1cnn2c(-c3cn(-c4cn(C5CCNCC5)nc4C(F)F)nn3)ccc2c1 [Compound 84A] ; field requested: IC50
Output line: 100 to 1000 nM

Input line: Recorded IC50 for OCC1CCC(n2cc(-n3cc(-c4cnn5ccc(N6CCC[C@@H](O)C6)nc45)nn3)c(C(F)F)n2)CC1 (stereo partly drawn) [Compound 113A] , please?
Output line: < 100 nM

Input line: I'd like to know its IC50. The molecule in question is FC(F)c1nn(C2CCCCC2)cc1-n1cc(-n2ccc3ccc(N4CCOCC4)nc32)nn1 [Compound 45A]
Output line: 1000 to 5000 nM

Input line: Reported IC50, molecule FC(F)c1nn(C2CCCCC2)cc1-n1cc(-c2cnn3cccnc23)nn1 [Compound 56A] : ____
Output line: 1000 to 5000 nM

Input line: GET /values?readout=IC50&item= OC[C@H]1CC[C@H](n2cc(-n3cc(-c4cnn5ccc(N[C@@H]6CCCC[C@@H]6O)nc45)nn3)c(C(F)F)n2)CC1 [Compound 111A]
Output line: < 100 nM

Origin of the recorded values: patent US20260028337A1
